All figures here come from patent US10882837B2.

- target-entity: GCGR (Homo sapiens)
- test-name: I125-glucagon binding assay (competition, GCGR membrane fractions)
- Parameters: expressed in transfected cells; host or cells: CHO-K1
- condition-context: competition with I125-glucagon 0.0625 nM; membrane fractions from GCGR overexpressed CHO-K1 cells
parameter: log10 of IC50 (log10 of the value in µM)
Hello, just confirming the data are log10 of IC50 with units of µM.

**Q:** Need log10 of IC50, item CCOC(=O)CCNC(=O)c1ccc(NC(c2ccc(-c3noc(C(C)(C)C)n3)cc2)C(C)C)cc1 (centres unmarked)
**A:** 0.46

**Q:** What would you report for CCCC[C@@H](Nc1ccc(C(=O)NCCC(=O)O)cc1)c1ccc(-c2nc3ccccc3o2)cc1 ?
**A:** -0.82

**Q:** // query: CCOC(=O)CCNC(=O)c1ccc(N[C@H](c2ccc(-c3nnc(C(F)(F)F)o3)cc2)C(C)CC)cc1 (some centres unmarked)
**A:** 1.21

**Q:** Same thing, different molecule: COC(=O)CCNC(=O)c1ccc(N[C@H](c2ccc(-c3noc(-c4ccccc4)n3)cc2)C(C)C)cc1
**A:** -0.55

**Q:** Check CCOC(=O)CCNC(=O)c1ccc(NC(c2ccc(-c3nnc(-c4ccc(F)cc4)o3)cc2)C(C)CC)cc1 (centres unmarked) too.
**A:** 0.67

====

- target-entity: glucagon receptor (GCGR) (Homo sapiens, UniProt P47871)
- Sequence (P47871 26-477, species assumed): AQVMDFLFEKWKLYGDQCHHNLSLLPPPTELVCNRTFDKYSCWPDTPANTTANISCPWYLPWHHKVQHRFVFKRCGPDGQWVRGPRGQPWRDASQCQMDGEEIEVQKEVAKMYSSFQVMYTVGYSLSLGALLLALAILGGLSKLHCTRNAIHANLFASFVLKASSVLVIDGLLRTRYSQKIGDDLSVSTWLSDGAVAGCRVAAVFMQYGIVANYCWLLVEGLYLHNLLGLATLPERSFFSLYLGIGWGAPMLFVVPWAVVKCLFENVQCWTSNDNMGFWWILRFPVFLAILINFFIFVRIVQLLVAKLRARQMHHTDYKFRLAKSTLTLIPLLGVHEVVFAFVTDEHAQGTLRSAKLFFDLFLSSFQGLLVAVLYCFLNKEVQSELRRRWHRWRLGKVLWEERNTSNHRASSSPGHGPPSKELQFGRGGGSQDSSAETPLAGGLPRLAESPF
- test-name: Glucagon cAMP inhibition assay (Cisbio cAMP Dynamic 2 HTRF)
- condition-context: GCGR overexpressed CHO-K1 cells or human primary hepatocytes (not specified); glucagon at EC50
Please respond with reported IC50 for every item in the list.
# number only, unit nM dropped from output

**Q:** Request the reported IC50 associated with CCCC[C@@H](Nc1ccc(C(=O)NCCC(=O)O)cc1)c1ccc(-c2noc(C(F)(F)F)n2)cc1
**A:** 1570

**Q:** Let us now turn to COC(=O)CCNC(=O)c1ccc(NC(c2ccc(-c3nnc(-c4ccccc4)o3)cc2)C(C)C)cc1 (stereo not shown)
**A:** 113

**Q:** Now this one: CCCCC(Nc1ccc(C(=O)NCCC(=O)OCC)cc1)c1ccc(-c2nnc(-c3ccccn3)o2)cc1 (stereo not shown)
**A:** 306

**Q:** // repeat for CCCCC(Nc1ccc(C(=O)NCCC(=O)O)cc1)c1ccc(-c2nnc(C(C)(C)C)o2)cc1 (stereo not shown) and report
**A:** 15200

**Q:** Lookup CCOC(=O)CCNC(=O)c1ccc(C(Oc2ccc(-c3nc4ccccc4s3)cc2)C(C)C)cc1 (stereo not shown)
**A:** 292

**Q:** // same read-out, input: O=C(O)CCNC(=O)c1ccc(NC(c2ccc(-c3noc(-c4ccccc4)n3)cc2)C2CCCCC2)cc1 (stereo not shown)
**A:** 511

**Q:** Try CCOC(=O)CCNC(=O)c1ccc(N[C@H](CC(C)C)c2ccc(-c3nc4ccccc4o3)cc2)cc1 next.
**A:** 361

====

- target-entity: glucagon receptor (GCGR) (Homo sapiens)
- test-name: Glucagon cAMP inhibition assay (Cisbio cAMP Dynamic 2 HTRF)
- condition-context: GCGR overexpressed CHO-K1 cells or human primary hepatocytes (not specified); glucagon at EC50
parameter: pIC50
Scale: pIC50 equals -log10([C]), with [C] in mol/L.

**Q:** Can you look up the measured pIC50 of CCOC(=O)CCNC(=O)c1ccc(N[C@H](CC(C)C)c2ccc(-c3noc(-c4ccccc4)n3)cc2)cc1 for me?
**A:** 6.61

**Q:** Let us now turn to CCCC[C@@H](Nc1ccc(C(=O)NCCC(=O)O)cc1)c1ccc(-c2noc(-c3ccccn3)n2)cc1
**A:** 6.86

**Q:** Field entry: CC(C)C(Nc1ccc(C(=O)NCCC(=O)O)cc1)c1ccc(-c2noc(-c3ccc(F)cc3)n2)cc1 (stereo not shown)
**A:** 5.93

**Q:** Here is the next compound: CC(C)[C@H](Nc1ccc(C(=O)NCCC(=O)O)cc1)c1ccc(-c2nc3ccccc3s2)cc1
**A:** 5.99

**Q:** # iterate: CCCC[C@H](Nc1ccc(C(=O)NCCC(=O)O)cc1)c1ccc(-c2nnc(C(F)(F)F)o2)cc1
**A:** 5.73

**Q:** Next compound up: CC(C)C(Nc1ccc(-c2noc(-c3ccccc3)n2)cc1)c1ccc(C(=O)NCCC(=O)O)cc1 (stereo not shown)
**A:** 6.14

**Q:** Next compound: CCOC(=O)CCNC(=O)c1ccc(N[C@@H](CC(C)C)c2ccc(-c3nc4ccccc4o3)cc2)cc1
**A:** 7.02

====

For each record, write down the corresponding pIC50.
- target-entity: GCGR (Homo sapiens, UniProt P47871)
- Sequence (P47871 26-477, species assumed): as above
- test-name: I125-glucagon binding assay (competition, GCGR membrane fractions)
- Set-up: expressed in transfected cells; host or cells: CHO-K1
- condition-context: competition with I125-glucagon 0.0625 nM; membrane fractions from GCGR overexpressed CHO-K1 cells
Just the number, please; pIC50 means minus log10 of the concentration in mol/L.

**Q:** Which pIC50 value belongs to CCOC(=O)CCNC(=O)c1ccc(N[C@H](c2ccc(-c3nnc(-c4ccccc4)o3)cc2)C(C)C)cc1 [Compound 1-39] ?
**A:** 5.54

**Q:** And what about the compound CCOC(=O)CCNC(=O)c1ccc(N[C@@H](CC(C)C)c2ccc(-c3nc4ccccc4o3)cc2)cc1 [Compound 4-17] ?
**A:** 6.13

**Q:** Queued: CCCC[C@H](Nc1ccc(C(=O)NCCC(=O)O)cc1)c1ccc(-c2nnc(-c3ccccn3)o2)cc1 [Compound 1-45]
**A:** 6.47

**Q:** Now consider CCCC[C@@H](Nc1ccc(C(=O)NCCC(=O)O)cc1)c1ccc(-c2nnc(C(F)(F)F)o2)cc1 [Compound 1-54] .
**A:** 5.51

**Q:** Now this one: CC(C)C(Nc1ccc(C(=O)NCCC(=O)O)cc1)c1ccc(-c2nnc(-c3ccc(F)cc3)o2)cc1 (stereo not shown) [Compound 1-18]
**A:** 6.91

**Q:** How about this compound: CC(C)[C@H](Nc1ccc(C(=O)NCCC(=O)O)cn1)c1ccc(-c2nc3ccccc3o2)cc1 [Compound 4-30]
**A:** 7.38

====

- target-entity: GCGR (Homo sapiens)
- test-name: I125-glucagon binding assay (competition, GCGR membrane fractions)
- Design: expressed in transfected cells; host or cells: CHO-K1
- condition-context: competition with I125-glucagon 0.0625 nM; membrane fractions from GCGR overexpressed CHO-K1 cells
pIC50: −log10 of the molar value.
Tick T if pIC50 is 7 or greater. Tick F if pIC50 is less than 7.

**Q:** Is pIC50 at least 7? Consider CCCC[C@@H](Nc1ccc(C(=O)NCCC(=O)OCC)cc1)c1ccc(-c2noc(C(F)(F)F)n2)cc1
**A:** F

**Q:** Item: CCOC(=O)CCNC(=O)c1ccc(NC(c2ccc(-c3nnc(-c4ccc(OC)cc4)o3)cc2)C(C)C)cc1 (stereo not shown)
**A:** F

**Q:** Also check CCOC(=O)CCNC(=O)c1ccc(N[C@H](CC(C)C)c2ccc(-c3noc(-c4ccccc4)n3)cc2)cc1
**A:** T

**Q:** Query CCOC(=O)CCNC(=O)c1ccc(C(Oc2ccc(-c3nc4ccccc4s3)cc2)C(C)C)cc1 (stereo not shown) next
**A:** F

**Q:** Would you mind doing CC(C)CC(Nc1ccc(C(=O)NCCC(=O)O)cc1)c1ccc(-c2nnc(-c3ccccc3)o2)cc1 (stereo not shown) as well?
**A:** F

**Q:** Queued: CCOC(=O)CCNC(=O)c1ccc(N[C@@H](c2ccc(-c3nc4ccccc4o3)cc2)C(C)CC)cc1 (stereo partly shown)
**A:** F

====

- target-entity: glucagon receptor (GCGR) (Homo sapiens, UniProt P47871)
- Construct: expressed in transfected cells; host or cells: CHO-K1
- test-name: Glucagon cAMP inhibition assay (Cisbio cAMP Dynamic 2 HTRF)
- Format: cell-based
- condition-context: GCGR overexpressed CHO-K1 cells or human primary hepatocytes (not specified); glucagon at EC50
# note: boundary value 300 nM maps to no (0); IC50 below it maps to yes (1)

**Q:** hey, is IC50 for CCCC[C@@H](Nc1ccc(C(=O)NCCC(=O)OCC)cc1)c1ccc(-c2noc(-c3ccccn3)n2)cc1 lower than 300 nM or not?
**A:** no (0)

**Q:** Now this one: CCOC(=O)CCNC(=O)c1ccc(N[C@H](c2ccc(-c3nc4ccccc4o3)cc2)C(C)CC)cc1 (some centres unmarked)
**A:** yes (1)

**Q:** Do the same for CCCCC(Nc1ccc(C(=O)NCCC(=O)OCC)cc1)c1ccc(-c2noc(-c3ccccc3)n2)cc1 (centres unmarked) please
**A:** yes (1)

**Q:** Request: CCCC[C@H](Nc1ccc(C(=O)NCCC(=O)OCC)cc1)c1ccc(-c2nnc(C(F)(F)F)o2)cc1
**A:** yes (1)

**Q:** Consider next the compound CCCC[C@@H](Nc1ccc(C(=O)NCCC(=O)O)cc1)c1ccc(-c2nnc(-c3ccccn3)o2)cc1 in the same way.
**A:** no (0)

**Q:** Subsequent entry: CC(C)C[C@@H](Nc1ccc(C(=O)NCCC(=O)O)cc1)c1ccc(-c2nc3ccccc3o2)cc1
**A:** no (0)

**Q:** Repeat for the following compound: CCOC(=O)CCNC(=O)c1ccc(NC(c2ccc(-c3noc(-c4ccccc4)n3)cc2)C2CCCCC2)cc1 (centres unmarked)
**A:** no (0)

**Q:** Now this one: CC(C)CC(Nc1ccc(C(=O)NCCC(=O)O)cc1)c1ccc(-c2nnc(-c3ccc(F)cc3)o2)cc1 (centres unmarked)
**A:** no (0)

**Q:** Then what about the compound CCOC(=O)CCNC(=O)c1ccc(NC(CC(C)C)c2ccc(-c3nnc(-c4ccc(F)cc4)o3)cc2)cc1 (centres unmarked) ?
**A:** yes (1)

**Q:** Same lookup for CCOC(=O)CCNC(=O)c1ccc(N[C@@H](c2ccc(-c3nnc(-c4ccccc4)o3)cc2)C(C)CC)cc1 (some centres unmarked) , please.
**A:** yes (1)

**Q:** Also CCC(C)C(Nc1ccc(C(=O)NCCC(=O)O)cc1)c1ccc(-c2nnc(-c3ccccc3)o2)cc1 (centres unmarked) , if possible.
**A:** no (0)

**Q:** What would you report for CC(C)C(Nc1ccc(C(=O)NCCC(=O)O)cc1)c1ccc(-c2nnc(-c3ccccc3)o2)cc1 (centres unmarked) ?
**A:** no (0)

**Q:** Now consider CCCC[C@H](Nc1ccc(C(=O)NCCC(=O)OCC)cc1)c1ccc(-c2noc(-c3ccccn3)n2)cc1 and answer again.
**A:** yes (1)

**Q:** What do we get for CCCCC(Nc1ccc(C(=O)NCCC(=O)OCC)cc1)c1ccc(-c2nc3ccccc3o2)cc1 (centres unmarked) ?
**A:** yes (1)

**Q:** What about this compound? CC(C)C(Nc1ccc(C(=O)NCCC(=O)O)cc1)c1ccc(-c2noc(C(C)(C)C)n2)cc1 (centres unmarked)
**A:** no (0)

**Q:** Also check CCOC(=O)CCNC(=O)c1ccc(N[C@@H](c2ccc(-c3noc(-c4ccccc4)n3)cc2)C(C)CC)cc1 (some centres unmarked)
**A:** no (0)

**Q:** Same question, CCCCC(Nc1ccc(C(=O)NCCC(=O)O)cc1)c1ccc(-c2noc(-c3cccs3)n2)cc1 (centres unmarked) this time
**A:** no (0)

**Q:** Quick one: CCOC(=O)CCNC(=O)c1ccc(N[C@@H](CC(C)C)c2ccc(-c3nc(-c4ccccc4)no3)cc2)cc1
**A:** yes (1)

**Q:** Moving on to CCCCC(Nc1ccc(C(=O)NCCC(=O)OC)cc1)c1ccc(-c2nnc(-c3ccccn3)o2)cc1 (centres unmarked)
**A:** yes (1)

**Q:** Please answer likewise for CCCC[C@H](Nc1ccc(C(=O)NCCC(=O)O)cc1)c1ccc(-c2noc(-c3ccccn3)n2)cc1
**A:** no (0)

**Q:** For CCCC[C@@H](Nc1ccc(C(=O)NCCC(=O)O)cc1)c1ccc(-c2noc(-c3ccccc3)n2)cc1 then?
**A:** no (0)

**Q:** Let us now turn to CCOC(=O)CCNC(=O)c1ccc(C(Nc2ccc(-c3nnc(-c4ccccc4)o3)cc2)C(C)CC)cc1 (centres unmarked)
**A:** no (0)

**Q:** Param item: CC(C)C[C@@H](Nc1ccc(C(=O)NCCC(=O)O)cc1)c1ccc(-c2nnc(-c3ccccc3)o2)cc1
**A:** no (0)

**Q:** # iterate: CCOC(=O)CCNC(=O)c1ccc(N[C@@H](c2ccc(-c3nnc(C(F)(F)F)o3)cc2)C(C)C)cc1
**A:** yes (1)

**Q:** Then what about the compound CCC(C)C(Nc1ccc(C(=O)NCCC(=O)O)cc1)c1ccc(-c2nnc(C(C)(C)C)o2)cc1 (centres unmarked) ?
**A:** no (0)

**Q:** Then CC(C)C[C@H](Nc1ccc(C(=O)NCCC(=O)O)cc1)c1ccc(-c2nc3ccccc3o2)cc1 ?
**A:** no (0)

**Q:** Note, next up: CCC(C)C(Nc1ccc(C(=O)NCCC(=O)O)cc1)c1ccc(-c2nnc(-c3ccc(F)cc3)o2)cc1 (centres unmarked)
**A:** no (0)

**Q:** CCOC(=O)CCNC(=O)c1ccc(NC(c2ccc(-c3nnc(-c4ccccc4)o3)cc2)C(C)C)cc1 (centres unmarked) ?
**A:** yes (1)
